# System: EKVX
# protocolDescription: NCI tumour cell line growth inhibition, 48 h
The source made the active and inactive calls. Rule as the data show it: active = GI50 up to about 1.1 µM and inactive = higher.
A correct response names exactly one class from active, inactive

Please review the entries below; each comes with its answer.
[
  {
    "molecule": "COc1ccc(S(=O)(=O)N/N=C(\\C)CN2C(=O)c3ccccc3C2=O)cc1",
    "assignedClass": "inactive"
  },
  {
    "molecule": "CC(C)S(=O)(=O)ON1C(=O)c2ccc(N(C)C)cc2C1=O",
    "assignedClass": "inactive"
  },
  {
    "molecule": "CC(=O)OCC(C)(COC(C)=O)N1C(=O)C2C3c4ccccc4C(c4ccccc43)C2C1=O (configuration not stated)",
    "assignedClass": "inactive"
  },
  {
    "molecule": "Cc1ccc2c(c1C)CC1(Cc3c(ccc4c3CCC4)C1=O)C2=O (configuration not stated)",
    "assignedClass": "inactive"
  }
]

Would you mind telling me which call this test gave Nc1ccc(-c2cssc2=S)cc1 ?
inactive

Fill in: this test's call for C[N+]1(CCCC[N+]2(C)CCCCCCC2)CCCCCCC1 is ___
inactive

How was COc1cc(C2c3cc4c(cc3[C@@H](Nc3ccc(C#N)cc3)C3COC(=O)[C@H]23)OCO4)cc(OC)c1O (some centres not stated) classified in this test?
inactive

Record request — test call for O=C(/C=C/c1ccccc1O)C(c1ccccc1)c1ccccc1
inactive

I'd appreciate the recorded outcome for CCCCn1c(-c2ccc([N+](=O)[O-])cc2)cs/c1=N/N=C1\C(=O)Nc2ccc(Br)cc21 from this test.
inactive

// param item: COc1cc(C2SCC(=O)N2c2ccc(NC(=O)c3ccc(N4C(=O)CSC4c4cc(OC)c(OC)c(OC)c4)cc3)cc2)cc(OC)c1OC (configuration not stated) ; yields the recorded call
inactive

Identify the outcome logged in this assay for the molecule shown: CN1C(c2ccccc2)CC(C)(O)CC1c1ccccc1 (configuration not stated)
inactive

How was COc1cccc(CCn2c(N)c(-c3ccccc3)c3ccc([N+](=O)[O-])cc3c2=O)c1 classified in this test?
inactive

Write down the call the test reported for this molecule. Item: CCC1(O)CC(OC2CC(N(C)C)C(OC3CC(O)C(OC4OC(C)C(=O)C=C4N)C(C)O3)C(C)O2)c2c(cc3c(c2O)C(=O)c2c(O)cccc2C3=O)C1C(=O)OC (configuration not stated)
active

For COC(=O)c1csc([C@@H](OC(=O)[C@H](C)[C@H](CCCC(C)(Cl)Cl)OC(=O)c2csc([C@H](O)CO)n2)C(C)C)n1 , which call appears in the assay record?
inactive
